Cited source for all entries: patent US4269820A

- assay.method.text: in vivo
- measurement.conditions: cynomolgus monkey, po

molecule | LD50
CCOC(=O)CC(SP(=S)(OC)OC)C(=O)OCC (centres unmarked) | 270 to 400 mg/kg
CCOP(=S)(OCC)Oc1ccc([N+](=O)[O-])cc1 [Parathion, diethyl 4-nitrophenyl phosphorothionate] | ~100 mg/kg
